- assay info: Pharmacokinetic study of Icotinib hydrochloride and Polymorph Form II of Icotinib maleate, oral suspension, plasma by HPLC
- Assay type: in vivo
- test settings: Sprague-Dawley (SD), rat, fasted male SD rats, oral suspension in sodium carboxymethyl cellulose, dose equivalent to 35 mg/kg Icotinib
Counter-ions that a name gives are not always drawn.
As shown below, each of these compounds has a reported AUC(0-inf) value.
Kindly provide the numeric value in ng·h/mL only, without the unit symbol.

C#Cc1cccc(Nc2ncnc3cc4c(cc23)OCCOCCOCCO4)c1 [Icotinib hydrochloride]
19100

Which AUC(0-inf) reading was recorded for the compound C#Cc1cccc(Nc2ncnc3cc4c(cc23)OCCOCCOCCO4)c1.O=C(O)/C=C\C(=O)O [Form II, Icotinib maleate] ? 65400

---

- assay info: Pharmacokinetic study of Icotinib hydrochloride and Polymorph Form II of Icotinib maleate, oral suspension, plasma by HPLC
- Assay type: in vivo
- test settings: Sprague-Dawley (SD), rat, fasted male SD rats, oral suspension in sodium carboxymethyl cellulose, dose equivalent to 35 mg/kg Icotinib, read-out: AUC(0-24)
Counter-ions that a name gives are not always drawn.
endpoint name: AUC(0-t) (ng·h/mL)
Kindly provide the numeric value in ng·h/mL only, without the unit symbol.

C#Cc1cccc(Nc2ncnc3cc4c(cc23)OCCOCCOCCO4)c1.O=C(O)/C=C\C(=O)O [Form II, Icotinib maleate]
64800

Turning now to a further compound:
Which AUC(0-t) reading was recorded for the compound C#Cc1cccc(Nc2ncnc3cc4c(cc23)OCCOCCOCCO4)c1 [Icotinib hydrochloride] ? 19000

---

- assay info: Pharmacokinetic study of Icotinib hydrochloride and Polymorph Form II of Icotinib maleate, oral suspension, plasma by HPLC
- Type: in vivo
- test settings: Sprague-Dawley (SD), rat, fasted male SD rats, oral suspension in sodium carboxymethyl cellulose, dose equivalent to 35 mg/kg Icotinib
Where a name gives a salt, the structure may show the parent alone.
As shown below, each of these compounds has a reported Tmax value.
Kindly provide the numeric value in h only, without the unit symbol.

C#Cc1cccc(Nc2ncnc3cc4c(cc23)OCCOCCOCCO4)c1.O=C(O)/C=C\C(=O)O [Form II, Icotinib maleate]
5.33

Which Tmax reading was recorded for the compound C#Cc1cccc(Nc2ncnc3cc4c(cc23)OCCOCCOCCO4)c1 [Icotinib hydrochloride] ? 2.33

Recorded values, source patent US9505774B2.
